Molecular target: C5aR (Homo sapiens (Human), UniProt P21730)
Sequence (P21730 whole entry): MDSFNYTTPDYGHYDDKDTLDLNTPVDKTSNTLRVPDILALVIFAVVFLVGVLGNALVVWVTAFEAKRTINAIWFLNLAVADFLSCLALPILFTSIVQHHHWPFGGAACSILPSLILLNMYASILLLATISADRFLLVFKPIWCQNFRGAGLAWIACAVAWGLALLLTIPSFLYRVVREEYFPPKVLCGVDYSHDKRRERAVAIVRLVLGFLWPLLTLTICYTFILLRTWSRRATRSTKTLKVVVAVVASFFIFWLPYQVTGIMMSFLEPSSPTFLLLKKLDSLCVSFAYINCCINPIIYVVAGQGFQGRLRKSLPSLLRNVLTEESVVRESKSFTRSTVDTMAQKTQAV
Assay: Chemotaxis assay using U937 cells (C5aR mediated migration)
Conditions: read-out: Mig IC50
Items are presented alongside their recorded IC50.
READOUT LABEL: IC50

1) Cc1cccc(C)c1-n1nc2c(c1-c1cc(F)c(NC(N)=O)cc1F)CN(c1ccc(Cl)cc1)CC2 [Example 1.095] :: ≤ 5 nM
2) Cc1cccc(C)c1-n1nc2c(c1-c1cc(F)c(NC(N)=O)cc1F)CN(Cc1ccc(C(F)(F)F)cc1C(F)(F)F)CC2 [Example 1.060] :: 5 to 50 nM
3) Cc1cccc(OCC(C)C)c1-n1nc2c(c1-c1ccc(NC(N)=O)cc1)CN(Cc1ccc(C(F)(F)F)cc1C(F)(F)F)CC2 [Example 1.357] :: ≤ 5 nM
4) Cc1cccc(OCC(C)C)c1-n1nc2c(c1-c1ccc(NC(N)=O)cc1)CN(Cc1ccc(C(F)(F)F)cc1F)CC2 [Example 1.329] :: ≤ 5 nM
